Reference for the values: PubChem BioAssay

# protocol: MRP1 drug-resistance reversers in H69AR cells – cell-based, doxorubicin co-treatment, pilot screen (AID 601)
# assay_conditions: H69AR cells + 2 uM doxorubicin, CellTiter-Glo, 72 h; at 10 µM; stronger effect = higher value
Provide the reported differential viability (reversal) of each item.
Could you give me the number in %? Just the number is fine.

Exam item: Fill in: differential viability (reversal) of Cc1nnc2n(-c3ccc(Cl)cc3)c(=O)c3c4c(sc3n12)CN(C)CC4 is ___
Marked response: -11.4

Exam item: Fill in: differential viability (reversal) of CC(C)CCNC(=O)Cn1c(NCCC(C)C)nc2c1c(=O)n(C)c(=O)n2C is ___
Marked response: -0.345

Exam item: Fill in: differential viability (reversal) of Cc1cn2c(-c3ccc(Cl)cc3)nnc2s1 is ___
Marked response: -3.87

Exam item: Fill in: differential viability (reversal) of COc1ccc(C2CC(c3ccc(OC)cc3)n3nc(N)nc3N2)cc1 (stereo unspecified) is ___
Marked response: -2.91

Exam item: Fill in: differential viability (reversal) of CCCCCOc1ccc(C2NC(=O)NC2=O)cc1 (stereo unspecified) is ___
Marked response: 18.2

Exam item: Fill in: differential viability (reversal) of Cc1c(NC(=O)c2ccc(Br)o2)c(=O)n(-c2ccccc2)n1C is ___
Marked response: 5.07

Exam item: Fill in: differential viability (reversal) of CCC(C)(C(=O)NC1CCCC1)N(Cc1cccs1)C(C)=O (stereo unspecified) is ___
Marked response: 6.71

Exam item: Fill in: differential viability (reversal) of Cn1c(/C=N/n2cnnc2)nc2ccccc21 is ___
Marked response: -14.4

Exam item: Fill in: differential viability (reversal) of CCN1C(=O)c2cccc3c(NC(=O)c4ccc(S(=O)(=O)N(C)C)cc4)ccc1c23 is ___
Marked response: -3.87

Exam item: Fill in: differential viability (reversal) of N#CCCN1CCN(S(=O)(=O)c2ccc(S(=O)(=O)NC3CCCC3)cc2)CC1 is ___
Marked response: 33.5

Exam item: Fill in: differential viability (reversal) of CCCSCCCNC(=O)Cn1cc2c(n1)CCC(C)C2 (stereo unspecified) is ___
Marked response: 7.85

Exam item: Fill in: differential viability (reversal) of O=C(CSc1nnc2ccccn12)c1ccccc1 is ___
Marked response: 14.1

Exam item: Fill in: differential viability (reversal) of Cc1cc(NC(=O)CSc2nc3c(c(=O)n2Cc2ccccc2)SC(C)C3)no1 (stereo unspecified) is ___
Marked response: 15.8

Exam item: Fill in: differential viability (reversal) of COc1ccc(-n2c(Cc3cccn3C)nnc2SCC(N)=O)cc1 is ___
Marked response: 2.7

Exam item: Fill in: differential viability (reversal) of CCN(CC)C1CCCCC1NS(=O)(=O)c1ccc(Cl)cc1 (stereo unspecified) is ___
Marked response: 13.1

Exam item: Fill in: differential viability (reversal) of Cn1c(CSc2nc3ccccc3s2)nnc1SCC(=O)NCCN1CCOCC1 is ___
Marked response: -3.51

Exam item: Fill in: differential viability (reversal) of CC(=O)NCC(=O)N(Cc1ccco1)C1(C(=O)NC2CCCCC2)CCCCC1 is ___
Marked response: 2.67

Exam item: Fill in: differential viability (reversal) of CCN1CCN(Cc2ccc(NC(=O)Nc3ccccc3)cc2)CC1 is ___
Marked response: -0.57

Exam item: Fill in: differential viability (reversal) of CC(CCc1ccco1)NC(=O)Cn1ncc2c1-c1ccccc1OC2 (stereo unspecified) is ___
Marked response: 11.9

Exam item: Fill in: differential viability (reversal) of COc1cccc(NC(=O)c2nc3nc(C)cc(C(F)F)n3n2)c1 is ___
Marked response: -2.74

Exam item: Fill in: differential viability (reversal) of Cn1nnnc1SCC(=O)N1CCN(c2ccccc2)CC1 is ___
Marked response: 8.86

Exam item: Fill in: differential viability (reversal) of CC1(C)CC(=O)C2=C(C1)NC(=O)CC2c1ccc(N(CCC#N)CCC#N)cc1 (stereo unspecified) is ___
Marked response: 23.6

Exam item: Fill in: differential viability (reversal) of C(/CCc1ccccc1)=N\n1cnnc1 is ___
Marked response: 9.93

Exam item: Fill in: differential viability (reversal) of CCOC(=O)c1ccc(-n2c(C)nc3c(cnn3-c3ccccc3C)c2=O)cc1 is ___
Marked response: -3.79

Exam item: Fill in: differential viability (reversal) of CCOC(=O)c1ccccc1NC(=O)c1ccc2c(=O)n3c(nc2c1)CCCCC3 is ___
Marked response: -9.15

Exam item: Fill in: differential viability (reversal) of CCOC(=O)c1ccc(NCc2nc3ccccc3[nH]2)cc1 is ___
Marked response: 15.1

Exam item: Fill in: differential viability (reversal) of COC(=O)c1cc(=O)n(Cc2ccc3c(c2)OCO3)c(=Nc2ccccc2)s1 is ___
Marked response: -4.97

Exam item: Fill in: differential viability (reversal) of O=C(O)c1ccc2c(c1)C(=O)N(c1ccc(Cl)cn1)C2=O is ___
Marked response: -0.91

Exam item: Fill in: differential viability (reversal) of NC(=O)CN1C(=O)C(O)(CC(=O)c2ccccc2O)c2ccccc21 (stereo unspecified) is ___
Marked response: -5.2

Exam item: Fill in: differential viability (reversal) of Cc1ccc(N(C)C(=O)N2CCN(c3ccccn3)CC2)cc1 is ___
Marked response: 7.52

Exam item: Fill in: differential viability (reversal) of COCc1cc(C)nc(Nc2ccc(C)cc2C)c1C#N is ___
Marked response: 9.25

Exam item: Fill in: differential viability (reversal) of O=C1CCCC2=C1C(c1cccs1)n1nc(SCc3ccccc3F)nc1N2 (stereo unspecified) is ___
Marked response: 66.1

Exam item: Fill in: differential viability (reversal) of O=C(c1ccc2nc(N3CCCCC3)sc2c1)N1CCN(c2ccccn2)CC1 is ___
Marked response: 2.3

Exam item: Fill in: differential viability (reversal) of CC1CCC(NC(=O)Cn2ncc3ccccc32)CC1 (stereo unspecified) is ___
Marked response: 7.93

Exam item: Fill in: differential viability (reversal) of Oc1ccc(-c2n[nH]c(=S)n2Cc2ccccc2)cc1 is ___
Marked response: 2.54

Exam item: Fill in: differential viability (reversal) of COc1ccccc1-c1cc2nc(C)c(CCC(=O)NCc3ccco3)c(C)n2n1 is ___
Marked response: 1.59

Exam item: Fill in: differential viability (reversal) of O=C(CN1CCN(Cc2ccc(F)cc2Cl)C1=O)NCCCN1CCOCC1 is ___
Marked response: 14

Exam item: Fill in: differential viability (reversal) of CCCCSc1nc(CCC)cc(=O)[nH]1 is ___
Marked response: -0.345

Exam item: Fill in: differential viability (reversal) of CCCCN(C)C(=O)c1ccc(CS(=O)(=O)c2ccccc2C)o1 is ___
Marked response: -5.93

Exam item: Fill in: differential viability (reversal) of CCc1ccccc1N1CC23C=CC(O2)C(C(=O)O)C3C1=O (stereo unspecified) is ___
Marked response: -2.65

Exam item: Fill in: differential viability (reversal) of CCOC(=O)c1cc2c(=O)n3ccccc3nc2n(CCCOC)c1=NC(C)=O is ___
Marked response: 26.5

Exam item: Fill in: differential viability (reversal) of CCOC(=O)N1CCN(C(c2ccc(Cl)cc2)c2sc3nc(C)nn3c2O)CC1 (stereo unspecified) is ___
Marked response: -8.7

Exam item: Fill in: differential viability (reversal) of CCCOC(=O)C1C2C=CC3(CN(c4cccc(Cl)c4)C(=O)C13)O2 (stereo unspecified) is ___
Marked response: -10.8

Exam item: Fill in: differential viability (reversal) of CCOC(=O)N1CCC(NC(=O)c2ccc3c(c2)N(CC)CCS3)CC1 is ___
Marked response: -5.34

Exam item: Fill in: differential viability (reversal) of Cc1cc(/C=N/n2cnnc2)c(C)n1-c1cccc(Cl)c1 is ___
Marked response: 20.5

Exam item: Fill in: differential viability (reversal) of COc1ccc(N2CCN(C(c3ccccc3)c3sc4nc(C)nn4c3O)CC2)cc1 (stereo unspecified) is ___
Marked response: -8.41

* * *

# protocol: Her2 expression decrease, cell viability multiplex – SKBR3 breast tumor cells, AlphaScreen, ATP viability, primary screen (AID 461);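 also: percent of carrier control wells set as 100% viability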
# assay_conditions: SKBR3 Her2 protein level, 18-24 h, measured here: SKBR3 viability, ATP luminescence, at 10 µM
measure_name: viability (%)
Could you give me the number in %? Just the number is fine.

Exam item: Fill in: viability of O=S(=O)(c1ccc(F)cc1)N1CCC(N2CCCC2)CC1 is ___
Marked response: 104

Exam item: Fill in: viability of COc1cccc(C2C(C(N)=O)=C(C)Nc3nc(-c4ccccc4Cl)nn32)c1 (stereo unspecified) is ___
Marked response: 79.5

Exam item: Fill in: viability of Cc1ccc(C2c3c(oc4ccccc4c3=O)C(=O)N2c2nnc(C(C)C)s2)o1 (stereo unspecified) is ___
Marked response: 84

Exam item: Fill in: viability of CCCSc1nnc2nc3c(nn12)c1ccccc1n3C is ___
Marked response: 86

Exam item: Fill in: viability of O=C(CSc1nc(-c2ccco2)cc(C(F)(F)F)n1)NCCCn1ccnc1 is ___
Marked response: 94

Exam item: Fill in: viability of Cc1ccc(C)c(C(=O)CC2(O)C(=O)N(C)c3ccccc32)c1 (stereo unspecified) is ___
Marked response: 112

Exam item: Fill in: viability of CCCCN(C)C(=O)c1cn(C)c2ccc(S(=O)(=O)N(C)C)cc2c1=O is ___
Marked response: 96

Exam item: Fill in: viability of O=C(NCc1ccco1)C1CCN(c2ccc(N3CCOCC3)nn2)CC1 is ___
Marked response: 86.5

Exam item: Fill in: viability of C=C(C)Cn1c(N2CC(C)CC(C)C2)nc2c1c(=O)[nH]c(=O)n2C (stereo unspecified) is ___
Marked response: 84

Exam item: Fill in: viability of Cn1cc(C2NC(=O)c3c(sc4c3CCCC4)N2)c2ccccc21 (stereo unspecified) is ___
Marked response: 99

Exam item: Fill in: viability of CCOC(=O)Cc1nnc(NC(=O)c2ccccc2OCC)s1 is ___
Marked response: 100
